Provenance of the data: the supplement of paper PMC6555819

- System: LXRa homodimer (NR concentration 270 nM)
- EXPERIMENTAL_DETAILS: PBM binding z-score (relative to random genomic background probes); higher = stronger binding; sequences stand for … in GC…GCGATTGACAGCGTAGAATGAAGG
RECORDED_METRIC: PBM binding z-score
Reply: number alone, nothing else.

Recorded results for 5 sequences are shown here.
RESIDUE_STRING: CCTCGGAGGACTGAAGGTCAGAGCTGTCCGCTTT
TARGET_OR_TEST_SYSTEM: LXRa homodimer (NR concentration 270 nM)
PBM binding z-score: 0.285
//
RESIDUE_STRING: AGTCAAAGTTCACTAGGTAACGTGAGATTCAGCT
TARGET_OR_TEST_SYSTEM: LXRa homodimer (NR concentration 270 nM)
PBM binding z-score: 2.64
//
RESIDUE_STRING: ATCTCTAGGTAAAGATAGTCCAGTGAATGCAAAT
TARGET_OR_TEST_SYSTEM: LXRa homodimer (NR concentration 270 nM)
PBM binding z-score: -0.00685
//
RESIDUE_STRING: AGTCAAAGTTCATCTAGGTAACGTTAGATATGCT
TARGET_OR_TEST_SYSTEM: LXRa homodimer (NR concentration 270 nM)
PBM binding z-score: 5.46
//
RESIDUE_STRING: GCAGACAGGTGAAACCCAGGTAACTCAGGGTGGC
TARGET_OR_TEST_SYSTEM: LXRa homodimer (NR concentration 270 nM)
PBM binding z-score: -0.738

Now look at this one.
Req: Which value of PBM binding z-score has been reported for `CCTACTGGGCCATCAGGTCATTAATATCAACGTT` in the records?
Resp: 1.3
